Recorded values, source ChEMBL document CHEMBL1201861.

Entries and their IC50
tested on: NCI-N87; assay: cells; type: functional, cell-based; settings: Homo sapiens;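 note: growth inhibition of human NCI-N87 cells, read out with a cell viability assay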
Description: SANGER: Inhibition of human NCI-N87 cell growth in a cell viability assay.

>  <Molecule>
CC[C@@]1(O)C(=O)OCc2c1cc1n(c2=O)Cc2cc3ccccc3nc2-1

>  <Relation>
=

>  <IC50 (nM)>
8.74

$$$$
>  <Molecule>
C[C@]1(c2nc3c(C(N)=O)cccc3[nH]2)CCCN1

>  <Relation>
>

>  <IC50 (nM)>
5000

$$$$
>  <Molecule>
Cn1cc(/C=C2\C(=O)Nc3cccnc32)c2ccccc21

>  <Relation>
>

>  <IC50 (nM)>
2000

$$$$
>  <Molecule>
C/C=C(/C)C(=O)O[C@H]1C(C)=C2[C@H]([C@@H]1OC(=O)CCCCCCC)[C@@](C)(OC(C)=O)C[C@H](OC(=O)CCC)[C@@]1(O)[C@H]2OC(=O)[C@@]1(C)O

>  <Relation>
>

>  <IC50 (nM)>
512

$$$$
>  <Molecule>
Cn1c(=O)n(-c2ccc(C(C)(C)C#N)cc2)c2c3cc(-c4cnc5ccccc5c4)ccc3ncc21

>  <Relation>
=

>  <IC50 (nM)>
111

$$$$

---

system: CAKI-1; experiment: cells; assay type: functional, cell-based; conditions: Homo sapiens
Description: SANGER: Inhibition of human CAKI-1 cell growth in a cell viability assay.
Entries and their IC50

>  <Compound>
Cn1c(=O)n(-c2ccc(C(C)(C)C#N)cc2)c2c3cc(-c4cnc5ccccc5c4)ccc3ncc21

>  <Measurement Target>
CAKI-1

>  <Relation>
=

>  <IC50 [nM]>
36.4

$$$$
>  <Compound>
C[C@]1(c2nc3c(C(N)=O)cccc3[nH]2)CCCN1

>  <Measurement Target>
CAKI-1

>  <Relation>
>

>  <IC50 [nM]>
5000

$$$$
>  <Compound>
CC[C@]1(O)C[C@@H]2CN(CCc3c([nH]c4ccccc34)[C@@](C(=O)OC)(c3cc4c(cc3OC)N(C)[C@H]3[C@@](O)(C(=O)OC)[C@H](OC(C)=O)[C@]5(CC)C=CCN6CC[C@]43[C@@H]65)C2)C1

>  <Measurement Target>
CAKI-1

>  <Relation>
=

>  <IC50 [nM]>
24.6

$$$$
>  <Compound>
O=c1[nH]c2ccccc2n1C1CCN(Cc2ccc(-c3nc4cc5[nH]cnc5cc4nc3-c3ccccc3)cc2)CC1

>  <Measurement Target>
CAKI-1

>  <Relation>
>

>  <IC50 [nM]>
2560

$$$$
>  <Compound>
CC(O)(CS(=O)(=O)c1ccc(F)cc1)C(=O)Nc1ccc(C#N)c(C(F)(F)F)c1 (stereo not given) [BICALUTAMIDE]

>  <Measurement Target>
CAKI-1;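 note: growth inhibition of CAKI-1 cells, measured by a cell viability assay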

>  <Relation>
>

>  <IC50 [nM]>
1020

$$$$

---

system: A253 cell line; assay: cells; type: functional, cell-based; settings: Homo sapiens
Description: SANGER: Inhibition of human A253 cell growth in a cell viability assay.
Endpoint Label: IC50

>  <Molecule>
Cc1ccc(NC(=O)c2cccc(C(C)(C)C#N)c2)cc1Nc1ccc2ncn(C)c(=O)c2c1

>  <Result>
> 4 µM

$$$$
>  <Molecule>
O=c1cc(N2CCOCC2)oc2c(-c3cccc4c3sc3ccccc34)cccc12

>  <Result>
> 2 µM

$$$$
>  <Molecule>
C/C=C(/C)C(=O)O[C@H]1C(C)=C2[C@H]([C@@H]1OC(=O)CCCCCCC)[C@@](C)(OC(C)=O)C[C@H](OC(=O)CCC)[C@@]1(O)[C@H]2OC(=O)[C@@]1(C)O

>  <Result>
0.00173 µM

$$$$
>  <Molecule>
CCNc1cc(N[C@H]2CC[C@@H](O)CC2)nc(Nc2ccc3c(ccn3Cc3ccccc3)c2)n1

>  <Result>
> 5.12 µM

$$$$
>  <Molecule>
C/C(O)=C(\C#N)C(=O)Nc1cc(Br)ccc1Br

>  <Result>
> 16 µM

$$$$
>  <Molecule>
CCn1c(-c2nonc2N)nc2cnc(Oc3cccc(NC(=O)c4ccc(OCCN5CCOCC5)cc4)c3)cc21 [GSK-269962A]

>  <Result>
> 2.5 µM

$$$$
>  <Molecule>
COc1cc(C)c(Sc2cnc(NC(=O)c3ccc(CNC(C)C(C)(C)C)cc3)s2)cc1C(=O)N1CCN(C(C)=O)CC1 (configuration not stated)

>  <Result>
> 10.2 µM

$$$$

---

Entries and their pIC50
tested on: HCC 2998; assay: cells; format: functional, cell-based; settings: Homo sapiens;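 note: growth inhibition of human HCC2998 cells, measured with a cell viability read-out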
Description: SANGER: Inhibition of human HCC2998 cell growth in a cell viability assay.
pIC50: −log10 of the molar value.
Endpoint Label: pIC50

>  <Compound>
O=c1cc(N2CCOCC2)oc2c(-c3cccc4c3sc3ccccc34)cccc12

>  <Endpoint Label>
pIC50

>  <Result>
< 5.70

$$$$
>  <Compound>
Cc1ccc(NC(=O)c2cccc(C(C)(C)C#N)c2)cc1Nc1ccc2ncn(C)c(=O)c2c1

>  <Endpoint Label>
pIC50

>  <Result>
6.65

$$$$
>  <Compound>
CCn1c(-c2nonc2N)nc2cnc(Oc3cccc(NC(=O)c4ccc(OCCN5CCOCC5)cc4)c3)cc21 [GSK-269962A]

>  <Endpoint Label>
pIC50

>  <Result>
< 5.60

$$$$
>  <Compound>
CC(=O)c1c(C)c2cnc(Nc3ccc(N4CCNCC4)cn3)nc2n(C2CCCC2)c1=O

>  <Endpoint Label>
pIC50

>  <Result>
< 5.40

$$$$
>  <Compound>
Fc1cc(-c2cc[nH]/c(=N/c3ccc(-n4cnc(N5CCOCC5)n4)cc3)n2)cc(N2CCOCC2)c1

>  <Endpoint Label>
pIC50

>  <Result>
5.69

$$$$
>  <Compound>
C[C@]12O[C@H](C[C@]1(O)CO)n1c3ccccc3c3c4c(c5c6ccccc6n2c5c31)CNC4=O

>  <Endpoint Label>
pIC50

>  <Result>
6.26

$$$$
>  <Compound>
Cn1cc(/C=C2\C(=O)Nc3cccnc32)c2ccccc21

>  <Endpoint Label>
pIC50

>  <Result>
< 5.70

$$$$
>  <Compound>
CCCS(=O)(=O)Nc1ccc(F)c(C(=O)c2c[nH]c3ncc(Cl)cc23)c1F

>  <Endpoint Label>
pIC50

>  <Result>
< 5.00

$$$$
>  <Compound>
CC(O)(CS(=O)(=O)c1ccc(F)cc1)C(=O)Nc1ccc(C#N)c(C(F)(F)F)c1 (centres undefined) [BICALUTAMIDE]

>  <Endpoint Label>
pIC50

>  <Result>
< 5.99

$$$$

---

system: MHH-ES-1; assay: cells; assay type: functional, cell-based; settings: Homo sapiens
Description: SANGER: Inhibition of human MHH-ES-1 cell growth in a cell viability assay.
Define the label as condition met when IC50 is strictly less than 0.3 µM and as condition not met in all remaining cases.

>  <Compound>
C[C@]12O[C@H](C[C@]1(O)CO)n1c3ccccc3c3c4c(c5c6ccccc6n2c5c31)CNC4=O [LESTAURTINIB]

>  <Group>
condition not met

$$$$
>  <Compound>
NC(=O)c1ncn([C@@H]2O[C@H](COP(=O)(O)O)[C@@H](O)[C@H]2O)c1N

>  <Group>
condition not met

$$$$
>  <Compound>
COc1cc(Nc2c(C#N)cnc3cc(OCCCN4CCN(C)CC4)c(OC)cc23)c(Cl)cc1Cl [BOSUTINIB]

>  <Group>
condition not met

$$$$
>  <Compound>
C/C=C(/C)C(=O)O[C@H]1C(C)=C2[C@H]([C@@H]1OC(=O)CCCCCCC)[C@@](C)(OC(C)=O)C[C@H](OC(=O)CCC)[C@@]1(O)[C@H]2OC(=O)[C@@]1(C)O [THAPSIGARGIN]

>  <Group>
condition met

$$$$
>  <Compound>
Fc1cc(-c2cc[nH]/c(=N/c3ccc(-n4cnc(N5CCOCC5)n4)cc3)n2)cc(N2CCOCC2)c1

>  <Group>
condition met

$$$$
>  <Compound>
CC(C)=CC[C@@H](O)C1=CC(=O)c2c(O)ccc(O)c2C1=O [SHIKONIN]

>  <Group>
condition not met

$$$$
>  <Compound>
CCCS(=O)(=O)Nc1ccc(F)c(C(=O)c2c[nH]c3ncc(Cl)cc23)c1F [PLX-4720]

>  <Group>
condition not met

$$$$
>  <Compound>
CO[C@@]12[C@H](COC(N)=O)C3=C(C(=O)C(C)=C(N)C3=O)N1C[C@@H]1N[C@@H]12 [MITOMYCIN]

>  <Group>
condition met

$$$$
>  <Compound>
O=c1cc(N2CCOCC2)oc2c(-c3cccc4c3sc3ccccc34)cccc12

>  <Group>
condition not met

$$$$
>  <Compound>
Cn1cc(/C=C2\C(=O)Nc3cccnc32)c2ccccc21

>  <Group>
condition not met

$$$$

---

test system: GCT; assay: cells; format: functional, cell-based; settings: Homo sapiens
Description: SANGER: Inhibition of human GCT cell growth in a cell viability assay.
Entries and their IC50

>  <Compound>
CC[C@]1(O)C[C@@H]2CN(CCc3c([nH]c4ccccc34)[C@@](C(=O)OC)(c3cc4c(cc3OC)N(C)[C@H]3[C@@](O)(C(=O)OC)[C@H](OC(C)=O)[C@]5(CC)C=CCN6CC[C@]43[C@@H]65)C2)C1

>  <Relation>
=

>  <IC50 / nM>
4.73

$$$$
>  <Compound>
CC(O)(CS(=O)(=O)c1ccc(F)cc1)C(=O)Nc1ccc(C#N)c(C(F)(F)F)c1 (centres undefined) [BICALUTAMIDE]

>  <Relation>
>

>  <IC50 / nM>
1020

$$$$
>  <Compound>
Fc1cc(-c2cc[nH]/c(=N/c3ccc(-n4cnc(N5CCOCC5)n4)cc3)n2)cc(N2CCOCC2)c1

>  <Relation>
=

>  <IC50 / nM>
204

$$$$
>  <Compound>
CC(C)=CC[C@@H](O)C1=CC(=O)c2c(O)ccc(O)c2C1=O

>  <Relation>
=

>  <IC50 / nM>
1150

$$$$
